target: Cannabinoid receptor 1 (Rattus norvegicus); assay: Agonist activity at rat CB1 receptor expressed in HEK293 cells assessed as inhibition of forskolin-induced cAMP accumulation incubated for 60 mins
Sequence (P20272 whole entry): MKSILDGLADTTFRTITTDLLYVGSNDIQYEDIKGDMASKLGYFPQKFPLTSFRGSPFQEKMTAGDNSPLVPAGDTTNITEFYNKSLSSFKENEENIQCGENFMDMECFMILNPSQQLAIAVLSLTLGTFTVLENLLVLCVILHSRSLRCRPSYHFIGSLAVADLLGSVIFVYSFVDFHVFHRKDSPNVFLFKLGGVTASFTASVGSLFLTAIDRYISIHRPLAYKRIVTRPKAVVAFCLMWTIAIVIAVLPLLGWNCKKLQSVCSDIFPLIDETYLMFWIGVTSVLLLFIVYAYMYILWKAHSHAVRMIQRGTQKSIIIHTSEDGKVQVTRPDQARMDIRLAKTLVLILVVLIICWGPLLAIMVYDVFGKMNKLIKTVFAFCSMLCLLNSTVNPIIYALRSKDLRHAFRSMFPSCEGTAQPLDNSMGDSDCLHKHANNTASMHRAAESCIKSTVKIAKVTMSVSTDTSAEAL
pEC50: −log10 of the molar value.
Entries and their pEC50

{"compoundString": "CC1(C)Oc2cc([C@]34CC5CC(C[C@@](CN=[N+]=[N-])(C5)C3)C4)cc(O)c2[C@@H]2C[C@H](O)CC[C@H]21", "pEC50": 8.62}
{"compoundString": "CC1(C)Oc2cc(C34CC5CC(CC(C5)C3)C4)cc(O)c2[C@@H]2C[C@H](O)CC[C@H]21", "pEC50": 8.57}
{"compoundString": "CC1(C)Oc2cc([C@]34CC5CC(C[C@@](C#N)(C5)C3)C4)cc(O)c2[C@@H]2C[C@H](O)CC[C@H]21", "pEC50": 7.02}
{"compoundString": "CC1(C)Oc2cc([C@]34CC5CC(C[C@@](CN=C=S)(C5)C3)C4)cc(O)c2[C@@H]2C[C@H](O)CC[C@H]21", "pEC50": 9.10}

----------
target: Cannabinoid receptor 2 (Homo sapiens); test: Covalent binding affinity to human CB2 receptor expressed in HEK293 cell membranes assessed as covalent labeling at 10 times Ki level incubated for 30 mins at 37 degC followed by UV irradiation by [3H]CP-55,940 radioligand binding assay
Sequence (P34972 whole entry): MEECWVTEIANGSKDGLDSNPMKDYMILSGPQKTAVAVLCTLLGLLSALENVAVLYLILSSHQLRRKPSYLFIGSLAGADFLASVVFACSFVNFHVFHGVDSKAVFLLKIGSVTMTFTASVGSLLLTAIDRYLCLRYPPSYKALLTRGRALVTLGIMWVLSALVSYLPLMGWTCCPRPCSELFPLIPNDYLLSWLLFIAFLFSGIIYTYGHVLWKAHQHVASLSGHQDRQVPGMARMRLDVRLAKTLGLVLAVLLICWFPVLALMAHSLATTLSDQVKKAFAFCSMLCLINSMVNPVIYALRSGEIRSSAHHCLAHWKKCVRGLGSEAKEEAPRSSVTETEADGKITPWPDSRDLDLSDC
Activity: recorded values
experimentalReadout: Activity

{"compoundString": "CC1(C)Oc2cc([C@]34CC5CC(C[C@@](CN=[N+]=[N-])(C5)C3)C4)cc(O)c2[C@@H]2C[C@H](O)CC[C@H]21", "targetDesc": "Cannabinoid receptor 2 (Homo sapiens)", "result": "60%"}
{"compoundString": "CC1(C)Oc2cc([C@]34CC5CC(C[C@@](N=[N+]=[N-])(C5)C3)C4)cc(O)c2[C@@H]2C[C@H](O)CC[C@H]21", "targetDesc": "Cannabinoid receptor 2 (Homo sapiens)", "result": "26%"}
{"compoundString": "CC1(C)Oc2cc([C@]34CC5CC(C[C@@](N=C=S)(C5)C3)C4)cc(O)c2[C@@H]2C[C@H](O)CC[C@H]21", "targetDesc": "Cannabinoid receptor 2 (Homo sapiens)", "result": "25%"}
{"compoundString": "CC1(C)Oc2cc([C@]34CC5CC(C[C@@](CN=C=S)(C5)C3)C4)cc(O)c2[C@@H]2C[C@H](O)CC[C@H]21", "targetDesc": "Cannabinoid receptor 2 (Homo sapiens)", "result": "74%"}

----------
molecular target: Cannabinoid receptor 1 (Rattus norvegicus); experiment: Agonist activity at rat CB1 receptor expressed in HEK293 cells assessed as inhibition of forskolin-induced cAMP accumulation incubated for 60 mins
pEC50: −log10 of the molar value.
experimentalReadout: pEC50

{"compoundString": "CC1(C)Oc2cc([C@]34CC5CC(C[C@@](N=C=S)(C5)C3)C4)cc(O)c2[C@@H]2C[C@H](O)CC[C@H]21", "experimentalReadout": "pEC50", "numericResult": 7.92}
{"compoundString": "CC1(C)Oc2cc([C@]34CC5CC(C[C@@](N=[N+]=[N-])(C5)C3)C4)cc(O)c2[C@@H]2C[C@H](O)CC[C@H]21", "experimentalReadout": "pEC50", "numericResult": 8.36}
{"compoundString": "CC1(C)Oc2cc([C@]34CC5CC(C[C@@](CC#N)(C5)C3)C4)cc(O)c2[C@@H]2C[C@H](O)CC[C@H]21", "experimentalReadout": "pEC50", "numericResult": 8.27}
{"compoundString": "COC(=O)N[C@]12CC3CC(C1)C[C@](c1cc(O)c4c(c1)OC(C)(C)[C@@H]1CC[C@@H](O)C[C@@H]41)(C3)C2", "experimentalReadout": "pEC50", "numericResult": 8.80}
